src = PubChem BioAssay AID488922

# tested_target: Potassium channel subfamily K member 9 (Homo sapiens)
# protocol_details: blockers of human TASK-3 (KCNK9) channel – HEK293 cells, thallium flux, primary screen (AID 488922)
# stated_conditions: HEK293 KCNK9, FluxOR thallium flux fluorescence, at 10 µM
Hit rate of the full screen: of about 310,000 compounds, about 3,800 (1.2%) were called active.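 The calls were made as follows: active = ratio B-score over 3 SD below the library mean, with starting fluorescence within 5 SD of its mean; inactive = the rest, inconclusive results apart.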 Shown is part of a subset that was picked to be rich in actives.
Outcomes: Yes for active, No for inactive

- compound: "COc1ccc(N2CCN(C3CCCCC3NS(=O)(=O)c3ccccc3)CC2)cc1 (stereo unspecified)"
  category_label: "No"
- compound: "COc1ccc(/C(N)=N/OC(=O)Cc2ccccc2)cc1"
  category_label: "No"
- compound: "COc1ccc(CNc2ncnc3ccccc23)cc1"
  category_label: "No"
- compound: "CCCCNC(=O)N1CCN(S(C)(=O)=O)CC1"
  category_label: "No"
- compound: "Cc1ccc(NC(=O)NC(=O)c2ccccc2)cc1F"
  category_label: "No"
- compound: "Cc1[nH]nc(SCC(=O)NCC(C)C)c1[N+](=O)[O-]"
  category_label: "No"
- compound: "O=S(=O)(NC1CCCCC1N1CCN(c2ccccc2F)CC1)c1ccccc1 (stereo unspecified)"
  category_label: "Yes"
- compound: "O=C(CNCCC1=CCCCC1)Nc1ccccc1N1CCCCCC1"
  category_label: "Yes"
- compound: "Cc1cccc(C(=O)Nc2ccccc2N2CCN(c3ccc(F)cc3)CC2)c1"
  category_label: "Yes"
- compound: "Cn1c(=O)n(C)c2cc(C(=O)Nc3ccc(Br)cc3)ccc21"
  category_label: "No"
- compound: "COc1cccc(COc2ccc(N(C)S(=O)(=O)c3ccccc3)cc2)c1"
  category_label: "Yes"
- compound: "O=C(NCC1CCCO1)c1cc2c([nH]c3ccccc32)c(-c2ccc(F)cc2)n1 (stereo unspecified)"
  category_label: "No"
- compound: "Nc1c(-c2ccccc2)nnn1Cc1ccccc1"
  category_label: "No"
- compound: "O=C(Nc1ccccc1N1CCCC1)c1ccc2ccccc2c1"
  category_label: "No"
- compound: "Cc1ccc(S(=O)(=O)/N=C(/NC(=S)Nc2c(C)n(C)n(-c3ccccc3)c2=O)c2ccccc2)cc1"
  category_label: "No"
- compound: "COc1ccc(NC(=O)C(CC(C)C)NS(=O)(=O)c2ccc3c(c2)CCN3C(C)=O)cc1OC (stereo unspecified)"
  category_label: "No"
- compound: "CC(=O)Nc1ccc(NC(=O)CN2C(=O)COc3ccc(S(=O)(=O)N4CCCCC4)cc32)cc1"
  category_label: "No"
- compound: "CCC[C@@H]1C[C@@]1(CCC)[C@@H](NC(=O)c1ccccc1)c1ccc(C(=O)OC)cc1"
  category_label: "No"
- compound: "COc1cccc(CNc2nc(C(F)(F)F)nc3ccccc23)c1"
  category_label: "Yes"
- compound: "O=S(=O)(NC1CCCCC1N1CCCCC1)c1ccc(Cl)cc1 (stereo unspecified)"
  category_label: "No"
- compound: "Cc1nn(CC(=O)NCc2ccccn2)c(C)c1[N+](=O)[O-]"
  category_label: "No"
- compound: "CC1(C)CC(=O)c2c(n(S(=O)(=O)c3ccccc3)c3ccc(NS(=O)(=O)c4ccccc4)cc23)C1"
  category_label: "No"
- compound: "CCN(C(=O)COC(=O)c1cc(NS(=O)(=O)c2ccc(Cl)c([N+](=O)[O-])c2)ccc1O)C1CCCCC1"
  category_label: "No"
- compound: "O=C(CN1CCN(c2ccc(F)cc2)CC1)Nc1ccccc1"
  category_label: "No"
- compound: "COc1ccccc1NC(=O)CSc1nc2sc3c(c2c(=O)n1-c1ccccc1)CCN(C)C3"
  category_label: "No"
- compound: "Cc1cc(NC(=O)CSc2nc3cc(Cl)ccc3c(=O)n2Cc2ccco2)no1"
  category_label: "No"
- compound: "CN(C)c1ccc(CNC(=O)CN2C(=O)COc3ccc(S(=O)(=O)N4CCCC4)cc32)cc1"
  category_label: "No"
- compound: "O=C(CNC(=O)c1cccnc1)N/N=C/c1cc(Br)c(O)c(Br)c1"
  category_label: "No"
- compound: "CC1=C(N2CCN(c3ncccn3)CC2)CCC1=O"
  category_label: "No"
- compound: "O=C1CC2(CC(c3ccc(Cl)cc3)=NO2)C(=O)N1c1ccccc1 (stereo unspecified)"
  category_label: "No"
- compound: "Cc1ccc2nc(C)c3c(c2c1)N(c1ccccc1)CC3"
  category_label: "No"
- compound: "COC(=O)c1ccc(C(NC(=O)OCc2ccccc2)/C(F)=C/[C@@H](C)C(=O)O)cc1 (stereo partly specified)"
  category_label: "No"
- compound: "CCOc1ccc(NS(=O)(=O)c2ccc(C(=O)NC3CCN(Cc4ccccc4)CC3)cc2)cc1"
  category_label: "No"
- compound: "CCc1ccc(NC(=O)Cn2nc(C)c([N+](=O)[O-])c2C)cc1"
  category_label: "No"
- compound: "CC(C)(C)SCCSC1=CC(=O)CC(c2ccccc2)C1 (stereo unspecified)"
  category_label: "No"
- compound: "Oc1ccc(/C=N/Nc2nc(-c3ccccc3F)nc3ccccc23)c(O)c1"
  category_label: "Yes"
- compound: "Cc1cc(C)c(C)c(S(=O)(=O)N2CCN(C(=O)c3ccc4c(=O)n5c(nc4c3)CCC5)CC2)c1C"
  category_label: "No"
- compound: "Cc1c(NC(=O)c2cc(-c3ccc(Cl)s3)nc3ccccc23)c(=O)n(-c2ccccc2)n1C"
  category_label: "No"
- compound: "Cc1c(C(C)(C)O)[nH]c2ccc(C#N)cc12"
  category_label: "No"
- compound: "CCCC(=O)Nc1ccccc1N1CCN(C(=O)c2ccccc2)CC1"
  category_label: "No"
- compound: "COc1ccccc1C(=O)NCCn1cc(SCC(=O)NCc2ccco2)c2ccccc21"
  category_label: "No"

====

# tested_target: Potassium channel subfamily K member 9 (Homo sapiens)
# protocol_details: blockers of human TASK-3 (KCNK9) channel – HEK293 cells, thallium flux, primary screen (AID 488922)
# stated_conditions: HEK293 KCNK9, FluxOR thallium flux fluorescence, at 10 µM
Hit rate of the full screen: of about 310,000 compounds, about 3,800 (1.2%) were called active.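 How the source made its calls: active means ratio B-score over 3 SD below the library mean, with starting fluorescence within 5 SD of its mean; inactive means the rest, inconclusive results apart.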 The list comes from a sample in which actives are over-represented; it also holds close analogues and randomly drawn compounds.
Outcomes: yes (1) (active), no (0) (inactive)

- compound: "O=C(Cn1nnc(N2CCCCC2)n1)c1ccc(Cl)c(Cl)c1"
  tested_target: "Potassium channel subfamily K member 9 (Homo sapiens)"
  category_label: "no (0)"
- compound: "COc1ccc(C(=O)N(Cc2ccc(N(C)C)cc2)C2CCS(=O)(=O)C2)cc1 (stereo unspecified)"
  tested_target: "Potassium channel subfamily K member 9 (Homo sapiens)"
  category_label: "no (0)"
- compound: "Cc1ccc(CNC(=O)C2(C(F)(F)F)C/C(=C\\Cc3ccccc3)CCCO2)o1 (stereo unspecified)"
  tested_target: "Potassium channel subfamily K member 9 (Homo sapiens)"
  category_label: "no (0)"
- compound: "N/C(=N\\OC(=O)COc1ccc([N+](=O)[O-])cc1)c1ccc(Br)cc1"
  tested_target: "Potassium channel subfamily K member 9 (Homo sapiens)"
  category_label: "no (0)"
- compound: "CC1CCCC(NC(=O)c2cccc(N3CCCC3=O)c2)C1C (stereo unspecified)"
  tested_target: "Potassium channel subfamily K member 9 (Homo sapiens)"
  category_label: "no (0)"
- compound: "O=C(/C=C/c1cccc(C(F)(F)F)c1)N1CCN(c2ccccn2)CC1"
  tested_target: "Potassium channel subfamily K member 9 (Homo sapiens)"
  category_label: "no (0)"
- compound: "Cc1ccnc(NC(=O)Cn2ccc([N+](=O)[O-])n2)c1"
  tested_target: "Potassium channel subfamily K member 9 (Homo sapiens)"
  category_label: "no (0)"
- compound: "COc1cc(NC(=O)Nc2ccc(C)cc2)cc([N+](=O)[O-])c1"
  tested_target: "Potassium channel subfamily K member 9 (Homo sapiens)"
  category_label: "no (0)"
- compound: "CCOc1ccc(C(=O)CCN2CCOCC2)cc1"
  tested_target: "Potassium channel subfamily K member 9 (Homo sapiens)"
  category_label: "no (0)"
- compound: "COc1cccc(CNC(=O)C(=O)NCCC2CCCCN2S(=O)(=O)c2ccc(C)cc2)c1 (stereo unspecified)"
  tested_target: "Potassium channel subfamily K member 9 (Homo sapiens)"
  category_label: "no (0)"
- compound: "CC(C)C(=O)NC(=S)Nc1ccccc1F"
  tested_target: "Potassium channel subfamily K member 9 (Homo sapiens)"
  category_label: "no (0)"
- compound: "COc1cc(/C=C/C(=O)O)cc(S(=O)(=O)Nc2ccccc2C(=O)NCCc2ccccc2)c1OC"
  tested_target: "Potassium channel subfamily K member 9 (Homo sapiens)"
  category_label: "no (0)"
- compound: "CCOc1ccc(-n2c(SCC(=O)NC3CCS(=O)(=O)C3)nnc2-c2cccnc2)cc1 (stereo unspecified)"
  tested_target: "Potassium channel subfamily K member 9 (Homo sapiens)"
  category_label: "no (0)"
- compound: "CCCCCCCCCCOC(=O)Cn1c(COc2ccc(C)cc2)[n+](C)c2ccccc21"
  tested_target: "Potassium channel subfamily K member 9 (Homo sapiens)"
  category_label: "yes (1)"
- compound: "CCOC(=O)C1=C(C)N=C2c3ccccc3C(=O)C2C1c1ccc(Br)cc1 (stereo unspecified)"
  tested_target: "Potassium channel subfamily K member 9 (Homo sapiens)"
  category_label: "no (0)"
- compound: "COc1ccc(OC)c(C(=O)c2coc3ccc(O)c(CN4CCOCC4)c23)c1"
  tested_target: "Potassium channel subfamily K member 9 (Homo sapiens)"
  category_label: "no (0)"
- compound: "C#CC(C)(C)NC(=O)c1cnc(-c2ccccc2)nc1-c1ccccc1"
  tested_target: "Potassium channel subfamily K member 9 (Homo sapiens)"
  category_label: "no (0)"
- compound: "O=C(Nc1ccccc1Cl)/C(Cl)=C(\\Cl)S(=O)c1ccccc1 (stereo unspecified)"
  tested_target: "Potassium channel subfamily K member 9 (Homo sapiens)"
  category_label: "yes (1)"
- compound: "O=C(Nc1ccc2c(c1)OCO2)c1sc2cc(Cl)ccc2c1Cl"
  tested_target: "Potassium channel subfamily K member 9 (Homo sapiens)"
  category_label: "no (0)"
- compound: "C/C=N/NC(=O)CCCC(=O)N/N=C/C"
  tested_target: "Potassium channel subfamily K member 9 (Homo sapiens)"
  category_label: "no (0)"
- compound: "COc1ccc(-c2[nH]ncc2/C=N/NC(=O)c2cc(Br)ccc2O)c(OC)c1"
  tested_target: "Potassium channel subfamily K member 9 (Homo sapiens)"
  category_label: "no (0)"
- compound: "CN(C)/C=C(\\C#N)C(=O)c1cccnc1Oc1cccc(F)c1"
  tested_target: "Potassium channel subfamily K member 9 (Homo sapiens)"
  category_label: "no (0)"
- compound: "O=C(Cc1ccc2c(c1)CCCC2)Nc1ccccc1Cl"
  tested_target: "Potassium channel subfamily K member 9 (Homo sapiens)"
  category_label: "no (0)"
- compound: "CCCn1c(=N)n(CC(=O)c2ccc(Cl)c(Cl)c2)c2ccccc21"
  tested_target: "Potassium channel subfamily K member 9 (Homo sapiens)"
  category_label: "yes (1)"
- compound: "COc1cc(NC(=S)NCCSc2ccc(C)cc2)cc(OC)c1"
  tested_target: "Potassium channel subfamily K member 9 (Homo sapiens)"
  category_label: "yes (1)"
- compound: "CCCCCCCCC(=O)NCCOc1ccccc1"
  tested_target: "Potassium channel subfamily K member 9 (Homo sapiens)"
  category_label: "no (0)"
- compound: "COc1ccc(OC)c(C(=O)c2coc3ccc(OC)cc23)c1"
  tested_target: "Potassium channel subfamily K member 9 (Homo sapiens)"
  category_label: "yes (1)"
- compound: "CC(Sc1nc(-c2ccccc2)cc(C(F)(F)F)n1)C(=O)Nc1ccc2c(c1)OCO2 (stereo unspecified)"
  tested_target: "Potassium channel subfamily K member 9 (Homo sapiens)"
  category_label: "no (0)"
- compound: "CCOC(=O)Cn1c(-c2cccnc2Cl)nc2ccccc21"
  tested_target: "Potassium channel subfamily K member 9 (Homo sapiens)"
  category_label: "no (0)"
- compound: "CN(Cc1c(F)cccc1Cl)S(=O)(=O)c1cccs1"
  tested_target: "Potassium channel subfamily K member 9 (Homo sapiens)"
  category_label: "no (0)"
- compound: "Cc1nn(C)c(C)c1C(C)NC(=O)c1ccc(OC2CCN(Cc3ccccn3)CC2)cc1 (stereo unspecified)"
  tested_target: "Potassium channel subfamily K member 9 (Homo sapiens)"
  category_label: "no (0)"
